EXPERIMENTAL TARGET: UniProtKB Q01662
Sequence (Q01662 whole entry): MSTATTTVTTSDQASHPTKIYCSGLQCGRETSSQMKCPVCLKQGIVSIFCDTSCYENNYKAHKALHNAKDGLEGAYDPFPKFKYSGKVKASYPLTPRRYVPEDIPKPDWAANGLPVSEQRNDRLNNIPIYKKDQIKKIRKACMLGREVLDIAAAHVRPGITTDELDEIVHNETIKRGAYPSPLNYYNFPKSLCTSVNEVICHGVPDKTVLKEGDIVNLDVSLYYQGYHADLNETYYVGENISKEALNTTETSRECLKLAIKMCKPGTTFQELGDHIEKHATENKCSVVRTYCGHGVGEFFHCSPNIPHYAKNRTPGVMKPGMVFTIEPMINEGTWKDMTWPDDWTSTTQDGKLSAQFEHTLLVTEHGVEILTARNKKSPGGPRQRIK
MEASUREMENT KIND: IC50 (µM)
One number for each entry, in µM.

Below: 6 compounds and their reported IC50.
COMPOUND | EXPERIMENTAL TARGET | REPORTED MEASUREMENT
C=CC(C)C(=O)Nc1scnc1C(=O)Nc1nccs1 (stereo not drawn) | UniProtKB Q01662 | 0.37
O=C(Nc1nccs1)c1ncsc1NC(=O)C1CC1 | UniProtKB Q01662 | 6.38
COC(Cc1scnc1C(=O)Nc1nccs1)C(C)C (stereo not drawn) | UniProtKB Q01662 | 0.5
O=C(O)CC(=O)Nc1scnc1C(=O)Nc1nccs1 | UniProtKB Q01662 | 4.91
O=C(Nc1nccs1)c1ncsc1Cc1ccccc1 | UniProtKB Q01662 | 3.8
CC(C)c1scnc1C(=O)Nc1nccs1 | UniProtKB Q01662 | 7.2

Parameter requested: IC50. Apply to each item below.
1. O=C(Nc1nccs1)c1ncsc1NC(=O)C1CCCC1
2. O=C(Nc1scnc1C(=O)Nc1nccs1)c1cccc(Cl)c1
3. COCC(=O)Nc1scnc1C(=O)Nc1nccs1
4. O=C(Nc1scnc1C(=O)Nc1nccs1)c1ccccc1F
5. O=C(COCc1ccccc1)Nc1scnc1C(=O)Nc1nccs1

1: 0.13; 2: 1.83; 3: 1.53; 4: 0.99; 5: 1.12

Count: 2. Required value per item: IC50.
1. CN(C)CC(=O)Nc1scnc1C(=O)Nc1nccs1
2. CCC(=O)Nc1scnc1C(=O)Nc1nccs1

[10.5, 0.22]
